test-details: Human HepG2 cell viability assay in 384 well format
Assay type: toxicity, cell-based
Parameters: dose 125 nL, time 70.5 hour; concentration not given beside the values
assay-context: HepG2 cells, read-out: Inhibition
Readings of cytotoxicity at 70.5 h for the listed compounds
Supply the numeric figure in %, leaving out any unit text.

> print(dat)
                                   compound  obs.value
1     O=C(Nc1cnn(CCN2CCOCC2)c1)c1cc(F)ccc1F      -2.44
2  O=C(NC1CCNC1)C1(N2CCCCC2)Cc2ccccc2C1 (stereo not given)       1.09

Reported cytotoxicity at 70.5 h for O=C1Nc2ccccc2/C1=C1\CCCN1 : what is it?
-1.25

Reported cytotoxicity at 70.5 h for O=C(NCc1ccco1)N1CCN(Cc2ccc3c(c2)CCO3)CC1 : what is it?
-6.39

Reported cytotoxicity at 70.5 h for O=C(NC[C@]12COC[C@H]1CN(Cc1nccs1)C2)c1cscn1 : what is it?
-3.54

Reported cytotoxicity at 70.5 h for CCN1CC[C@]2(CN(Cc3nccs3)C[C@H]2c2ccccc2)C1=O : what is it?
-0.124

Reported cytotoxicity at 70.5 h for CCn1nc(C)cc1C(=O)N1C[C@@H]2C[C@@H](c3nnc(C)[nH]3)O[C@@H]2C1 : what is it?
-12.7

Reported cytotoxicity at 70.5 h for Cc1cc(CN2CCCC2Cn2cccn2)no1 (stereo not given) : what is it?
-10.2

Reported cytotoxicity at 70.5 h for COCCCN1Cc2cccc(NC(=O)c3ccccc3C)c2C1 : what is it?
15.2

Reported cytotoxicity at 70.5 h for COc1cc(CNc2cnn(CC(F)F)c2)ccc1O : what is it?
26.6

Reported cytotoxicity at 70.5 h for COc1ccc(C(=O)NCCN(C)C)c(I)c1 : what is it?
2.46

Reported cytotoxicity at 70.5 h for COc1ccc2c(c1)C1(CCN(Cc3cccnc3)CC1)N(C)CC2 : what is it?
-1.98

Reported cytotoxicity at 70.5 h for Cc1cnn(CC2CCCCN2Cc2nc(C)c3ccccc3n2)c1 (stereo not given) : what is it?
-1.81

Reported cytotoxicity at 70.5 h for Cc1cc(NC(=O)Cn2ccc(=O)c3ccccc32)[nH]n1 : what is it?
-3.31

Reported cytotoxicity at 70.5 h for O=C(c1ccnc(N2CCOC(c3ccc(Cl)cc3)C2)c1)N1CCCC1 (stereo not given) : what is it?
-15.4

###

Readings of cytotoxicity at 70.5 h for the listed compounds
test-details: Human HepG2 cell viability assay in 384 well format
Type: toxicity, cell-based
Parameters: dose 125 nL, time 70.5 hour; concentration not given beside the values
assay-context: HepG2 cells, read-out: Inhibition
Supply the numeric figure in %, leaving out any unit text.

Consider the following illustrative entries.
> print(dat)
                                   compound              value.kind  obs.value
1  O=C1C[C@H]2[C@@H](CCN2C(=O)c2cscn2)N1Cc1cccnc1  cytotoxicity at 70.5 h      -20.8
2  CCC(O)Cn1nc(-c2ccc(C(=O)O)cc2)cc1-c1ccc(F)cc1 (stereo unspecified)  cytotoxicity at 70.5 h      -5.44
3  NC(=O)c1ccc(C2CCCN2C(=O)Cn2nc3ccccc3n2)s1 (stereo unspecified)  cytotoxicity at 70.5 h       8.36
4  O=C(CNC(=O)c1ccoc1)NC(c1ccc(F)cc1)C(F)(F)F (stereo unspecified)  cytotoxicity at 70.5 h       -3.8
5         Cc1cccc(CN2CCN(c3nc(CO)cs3)CC2)c1  cytotoxicity at 70.5 h      -4.76

Let's switch to this compound now.
Reported cytotoxicity at 70.5 h for COCCN(Cc1ccc(F)cc1C#N)CC(F)(F)F : what is it?
-10.5
